assay overview: Determination of Log D value (flask shaking method)
Assay type: physicochemical
run conditions: pH 6.8; partition between n-octanol and second solution for the disintegration test (16th revised Japanese Pharmacopoeia), room temperature
assay endpoint: logD

# compound, assay endpoint, meas value
records = [
    ("O=C(O)CCCCN(CCc1ccccc1OCc1ccc(COc2ccccc2)cc1)C1CCCc2cc(C(=O)O)ccc21 (stereo not drawn) [Compound No. 22]", "logD", 2.18),
    ("CC(C)(C)c1cccc(CO[C@@H](CN(CCCCC(=O)O)Cc2ccc(C(=O)O)cc2)c2cccc(Cl)c2)c1 [Compound No. 2]", "logD", 2.14),
    ("CC(C)(C)c1ccccc1COc1ccccc1CCN(CCCCC(=O)O)C1CCCc2cc(C(=O)O)ccc21 (stereo not drawn) [Compound No. 15]", "logD", 1.95),
    ("O=C(O)CCCCN(CCc1ccccc1OCc1cccc2c1CCCC2)[C@H]1CCCc2cc(C(=O)O)ccc21 [Compound No. 8]", "logD", 1.87),
    ("O=C(O)CCCCN(Cc1ccc(C(=O)O)cc1)C[C@H](OCc1ccc(Oc2ccc(Cl)cc2)cc1)c1ccccc1 [Compound No. 5]", "logD", 2.17),
    ("O=C(O)CCCCN(CCc1ccccc1OCc1ccc(CCc2ccccc2)cc1)Cc1ccc(C(=O)O)cc1 [Comparative Compound 1, reference compound]", "logD", 1.5),
    ("O=C(O)CCCCN(CCc1ccccc1OCc1ccc(C#CC2CC2)cc1)C1CCCc2cc(C(=O)O)ccc21 (stereo not drawn) [Compound No. 21]", "logD", 2.06),
    ("O=C(O)CCCCN(CCc1ccccc1OCc1ccc(OCc2ccccc2)cc1)C1CCOc2cc(C(=O)O)ccc21 (stereo not drawn) [Compound No. 24]", "logD", 2.4),
    ("N#Cc1cccc([C@H](CN(CCCCC(=O)O)Cc2ccc(C(=O)O)cc2)OCc2ccc(CCc3ccccc3)cc2)c1 [Compound No. 1]", "logD", 2.03),
    ("O=C(O)CCCCN(CCc1ccccc1OCc1ccc2c(c1)CCCC2)C1CCCc2cc(C(=O)O)ccc21 (stereo not drawn) [Compound No. 20]", "logD", 1.87),
    ("O=C(O)CCCCN(CCc1ccccc1OCc1ccc(OCc2ccccc2)cc1)C1CCCc2cc(C(=O)O)ccc21 (stereo not drawn) [Compound No. 26]", "logD", 2.24),
    ("O=C(O)CCCCN(Cc1ccc(C(=O)O)cc1)C[C@H](OCc1ccc(CCc2ccc(Cl)cc2)cc1)c1ccccc1 [Compound No. 6]", "logD", 2.02),
]

* * *

target: UniProt:Q02153
Sequence (Q02153 whole entry): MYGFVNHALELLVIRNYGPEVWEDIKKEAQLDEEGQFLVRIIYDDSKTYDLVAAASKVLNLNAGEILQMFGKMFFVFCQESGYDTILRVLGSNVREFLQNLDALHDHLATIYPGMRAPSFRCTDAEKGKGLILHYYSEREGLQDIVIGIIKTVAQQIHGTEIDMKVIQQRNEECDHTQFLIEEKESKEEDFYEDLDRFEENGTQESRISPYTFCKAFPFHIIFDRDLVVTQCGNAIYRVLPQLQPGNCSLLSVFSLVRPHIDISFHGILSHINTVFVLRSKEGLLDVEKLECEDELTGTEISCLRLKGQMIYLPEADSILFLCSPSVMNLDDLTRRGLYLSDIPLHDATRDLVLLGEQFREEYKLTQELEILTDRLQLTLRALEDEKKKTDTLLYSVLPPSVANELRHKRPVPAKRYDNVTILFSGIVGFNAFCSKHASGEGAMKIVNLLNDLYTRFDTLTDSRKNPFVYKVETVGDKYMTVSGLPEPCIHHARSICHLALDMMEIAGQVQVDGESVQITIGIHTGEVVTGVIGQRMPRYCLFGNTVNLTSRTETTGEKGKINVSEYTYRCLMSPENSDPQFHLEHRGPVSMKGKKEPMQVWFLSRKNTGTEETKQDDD
Sequence (Q02108 whole entry partner): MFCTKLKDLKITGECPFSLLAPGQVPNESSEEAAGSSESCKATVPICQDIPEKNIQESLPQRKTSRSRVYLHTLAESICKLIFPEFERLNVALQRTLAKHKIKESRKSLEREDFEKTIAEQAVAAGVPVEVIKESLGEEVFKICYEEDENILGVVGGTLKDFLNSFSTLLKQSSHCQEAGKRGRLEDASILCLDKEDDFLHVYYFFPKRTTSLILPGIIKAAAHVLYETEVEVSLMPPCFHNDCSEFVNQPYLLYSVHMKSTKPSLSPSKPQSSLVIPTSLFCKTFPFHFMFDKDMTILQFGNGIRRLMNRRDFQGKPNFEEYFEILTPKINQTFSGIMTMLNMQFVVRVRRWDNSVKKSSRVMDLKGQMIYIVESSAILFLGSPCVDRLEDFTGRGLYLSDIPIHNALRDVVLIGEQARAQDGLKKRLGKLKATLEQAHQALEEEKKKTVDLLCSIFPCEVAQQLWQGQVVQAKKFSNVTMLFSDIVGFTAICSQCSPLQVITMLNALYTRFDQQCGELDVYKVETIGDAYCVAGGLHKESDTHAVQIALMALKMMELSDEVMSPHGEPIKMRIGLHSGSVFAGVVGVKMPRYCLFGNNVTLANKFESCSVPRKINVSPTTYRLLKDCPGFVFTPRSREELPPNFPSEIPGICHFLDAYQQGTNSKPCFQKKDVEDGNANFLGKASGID
assay overview: Measurement of sGC activating effect in CHO-K1 cells stably expressing human sGC and mouse CNGA2
run conditions: CHO-K1 cells expressing human sGC and mouse CNGA2, Fura2 calcium readout, 10 μmol/L ODQ in assay buffer
assay endpoint: EC50 (nM)

# compound, target, endpoint unit, EC50
data = [
    ("O=C(O)CCCCN(CCc1ccccc1OCc1ccc(CCc2ccccc2)cc1)Cc1ccc(C(=O)O)cc1 [Comparative Compound 1, reference compound]", "UniProt:Q02153", "nM", 8.84),
]

(1) O=C(O)CCCCN(CCc1ccccc1OCc1cc2c(s1)CCCC2)C1CCCc2cc(C(=O)O)ccc21 (stereo not shown)
(2) O=C(O)CCCCN(Cc1ccc(C(=O)O)cc1)C[C@H](OCc1ccc(CCc2ccc(Cl)cc2)cc1)c1ccccc1
(3) O=C(O)CCCCN(CCc1ccccc1OCc1ccc(CCc2ccccc2)cc1)C1COc2cc(C(=O)O)ccc21 (stereo not shown) [Comparative Compound 2, reference compound]
(4) O=C(O)CCCCN(Cc1ccc(C(=O)O)cc1)C[C@H](OCc1ccc(CCc2ccccc2)cc1)c1ccccc1
Thanks in advance: please rank these 4 entries by EC50, highest to lowest. Show the ranking through the labels, in the order asked for.
1, 3, 4, 2

(I) O=C(O)CCCCN(Cc1ccc(C(=O)O)cc1)C[C@H](OCc1ccc(Oc2ccc(Cl)cc2)cc1)c1ccccc1
(II) O=C(O)CCCCN(CCc1ccccc1OCc1ccc(CCc2ccccc2)cc1)[C@H]1CCc2cc(C(=O)O)ccc21
(III) O=C(O)CCCCN(Cc1ccc(C(=O)O)cc1)C[C@H](OCc1ccc(CCc2ccccc2)s1)c1ccccc1
Order each entry by recorded EC50, climbing from the minimum. Write out the labels following the order that was asked for.
III, I, II
(III: 1.61 nM, I: 6.49 nM, II: 11.9 nM)

(1) N#Cc1cccc([C@H](CN(CCCCC(=O)O)Cc2ccc(C(=O)O)cc2)OCc2ccc(Oc3ccccc3)cc2)c1 [Comparative Compound 3, reference compound]
(2) CC(C)(C)c1cc(CO[C@@H](CN(CCCCC(=O)O)Cc2ccc(C(=O)O)cc2)c2ccccc2)cc(C(C)(C)C)c1 [Comparative Compound 4, reference compound]
Which entry shows the lesser value of EC50 here, 1 or 2 ? Please indicate the selected item by its label.
2
(2: 0.46 nM, 1: 7.01 nM)

(I) N#Cc1cccc([C@H](CN(CCCCC(=O)O)Cc2ccc(C(=O)O)cc2)OCc2ccc(CCc3ccccc3)cc2)c1
(II) O=C(O)CCCCN(CCc1ccccc1OCc1ccc2c(c1)CCCC2)C1CCOc2cc(C(=O)O)ccc21 (stereo not shown)
Field: lower EC50 | Options: I / II Your answer should be the label attached to the chosen record.
II
(II: 2.9 nM, I: 8.8 nM)
